biological target: IGFIIR extracellular domain (domains 10-14; M6PR) (human, UniProt P11717 1510-2108); test: SPR
Sequence (P11717 1510-2108): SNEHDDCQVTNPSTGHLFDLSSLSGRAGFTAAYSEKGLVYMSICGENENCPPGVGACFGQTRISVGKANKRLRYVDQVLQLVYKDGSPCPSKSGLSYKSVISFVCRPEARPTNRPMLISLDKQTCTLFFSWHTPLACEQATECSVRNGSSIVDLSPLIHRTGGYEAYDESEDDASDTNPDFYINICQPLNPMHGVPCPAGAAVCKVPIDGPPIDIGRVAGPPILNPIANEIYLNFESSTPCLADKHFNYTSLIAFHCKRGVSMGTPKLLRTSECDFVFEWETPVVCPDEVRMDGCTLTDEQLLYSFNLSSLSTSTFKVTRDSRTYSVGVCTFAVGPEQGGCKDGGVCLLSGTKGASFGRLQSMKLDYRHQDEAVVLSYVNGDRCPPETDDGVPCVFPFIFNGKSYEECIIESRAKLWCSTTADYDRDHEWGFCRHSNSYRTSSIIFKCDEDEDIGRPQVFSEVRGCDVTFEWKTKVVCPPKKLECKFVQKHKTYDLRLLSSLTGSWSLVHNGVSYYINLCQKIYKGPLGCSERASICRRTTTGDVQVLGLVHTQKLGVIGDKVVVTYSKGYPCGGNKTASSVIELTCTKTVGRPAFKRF
Assignment: determine reported Kd for the given binders.
Give bare numbers, in nM.

GGGCGCGUAGAUGACGAGCAGUCCUAACAUCGUUUAGGAC (structured_RNA) [RNA aptamer-20] | 20

Could you now look at the following binder, please?
Please look at this binder and report its Kd: GGGCGCGTAGATGACGAGCAGTCCTAACATCGTTTAGGAC (structured_DNA) [DNA aptamer-20]
35.5
